experiment: clinical; conditions: human, in vivo
Metric: clearance (mL/min)
Could you give me the number in mL/min? Just the number is fine.

Form field clearance, entry OC(c1cc(C(F)(F)F)nc2c(C(F)(F)F)cccc12)C1CCCCN1 (stereo not shown) [Mefloquine, mefloquine] : 40

* * *

test: clinical; conditions: human, in vivo
Metric: Vd (L)
Could you give me the number in L? Just the number is fine.

Form field Vd, entry OC(c1cc(C(F)(F)F)nc2c(C(F)(F)F)cccc12)C1CCCCN1 (stereo not shown) : 625

* * *

Test: Population pharmacokinetic analysis (NONMEM) of piperaquine in Cambodian malaria patients (Pramoy, DHA-PPQ)
Assay type: in vivo, human
Conditions: human, plasma, oral; present study; 60 patients, sampling 14 days
Description: The third study was performed during July to October 2008 at Pramoy Health Centre, Veal Veng district, Pursat province, Cambodia. A total of 287 suspected malaria cases were screened by microscopy, of whom 82 (29%) were infected with P. falciparum and 50 (17%) with P. vivax (no mixed infections). Children younger than six years of age and pregnant or lactating women were excluded. […]
Metric: clearance (mL/min)
Could you give me the number in mL/min? Just the number is fine.

Form field clearance, entry Clc1ccc2c(N3CCN(CCCN4CCN(c5ccnc6cc(Cl)ccc56)CC4)CC3)ccnc2c1 : 1820

* * *

experiment: Population pharmacokinetic analysis (NONMEM) of artemether-lumefantrine and metabolites in Tanzanian malaria patients (Kibaoni); format: in vivo, human; conditions: human, plasma, oral; present study; Tanzanian patients, sampling 7 days; read-out: VSS (steady-state volume of distribution), population estimate for a person of 70 kg
Vd: recorded values
Number first, unit second.

For orientation, consider the following solved cases.
molecule="C[C@H]1[C@@H](O)O[C@@H]2O[C@@]3(C)CC[C@H]4[C@H](C)CC[C@@H]1[C@@]24OO3 [DHA, dihydroartemisinin]" assay_result="129 L"
molecule="CCCCN(CCCC)CC(O)c1cc(Cl)cc2c1-c1ccc(Cl)cc1/C2=C/c1ccc(Cl)cc1 (stereo not drawn)" assay_result="265 L"

Form field Vd, entry CO[C@H]1O[C@@H]2O[C@@]3(C)CC[C@H]4[C@H](C)CC[C@@H]([C@H]1C)[C@@]24OO3 : 129 L

This collection of values is drawn from paper PMC3720542.
